Cited source: paper PMC6877910

- tgt: butyrylcholinesterase (BChE) (Mus musculus, UniProt Q03311)
- Construct: mouse brain S9 fraction was prepared by homogenizing freshly collected mouse brain; from tissue; host or cells: mouse brain S9 fraction (9 000 x g supernatant)
- Sequence (Q03311 30-603): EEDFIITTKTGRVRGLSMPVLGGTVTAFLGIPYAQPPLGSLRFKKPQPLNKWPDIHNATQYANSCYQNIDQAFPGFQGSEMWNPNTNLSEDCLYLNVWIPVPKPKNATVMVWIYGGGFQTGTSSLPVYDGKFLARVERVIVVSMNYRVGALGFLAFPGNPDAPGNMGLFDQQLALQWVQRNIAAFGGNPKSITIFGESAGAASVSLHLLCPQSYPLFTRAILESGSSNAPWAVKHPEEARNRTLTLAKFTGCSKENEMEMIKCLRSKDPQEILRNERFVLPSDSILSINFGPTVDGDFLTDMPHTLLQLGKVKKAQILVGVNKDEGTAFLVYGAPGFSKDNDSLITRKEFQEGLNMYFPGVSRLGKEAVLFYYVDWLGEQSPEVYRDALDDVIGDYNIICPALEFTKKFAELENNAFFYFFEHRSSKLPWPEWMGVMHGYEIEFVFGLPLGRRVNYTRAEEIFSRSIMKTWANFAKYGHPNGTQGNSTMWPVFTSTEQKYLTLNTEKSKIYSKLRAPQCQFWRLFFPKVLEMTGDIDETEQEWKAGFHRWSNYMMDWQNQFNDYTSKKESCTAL
- assay_method_text: biochemical
- Assay type: biochemical
- applied_conditions: mouse brain S9 subcellular fraction; 30 min end point; mean ± SD, n = 3; read-out: BuChE IC50 value
attribute_measured: IC50

compound: COc1cc(C=CC(=O)Oc2cccc(CC(N)C(=O)O)c2)ccc1O (centres unmarked)
tgt: butyrylcholinesterase (BChE) (Mus musculus, UniProt Q03311)
reported_value: 236 µM

Qu. For the record COc1cc(C=CC(=O)NCc2cccc(CC(N)C(=O)O)c2)ccc1O (centres unmarked) , what value of IC50 is listed for butyrylcholinesterase (BChE) (Mus musculus, UniProt Q03311)?
Ans. 221 µM
